Where do the numbers come from? From patent EP0240392A1.

assay: Solubility in water and physiological serum; format: physicochemical; settings: water; eau; read-out: solubilité dans l'eau
quantity.measured: solubility

Quick note, solubility for C(CCN1CCCNP12=NP(N1CC1)(N1CC1)=NP(N1CC1)(N1CC1)=N2)CN1CCCNP12=NP(N1CC1)(N1CC1)=NP(N1CC1)(N1CC1)=N2 (stereo not shown) landed at > 20 mg/mL
